Tested on: Ames spores
Experiment: microbe, parasite or virus in culture
Type: cell-based, B. anthracis
Settings: Bacillus anthracis
Attribute Measured: MIC (µg/mL)
One number for each entry, in µg/mL.

| Substance Smiles | MIC / µg/mL |
| --- | --- |
| c1cc2cc(-c3ccc4cc(-c5ccc6oc(C7=NCCN7)cc6c5)[nH]c4c3)[nH]c2cc1C1=NCCN1 | 0.174 |
| c1cc2cc(-c3ccc4cc(C5=NCCN5)[nH]c4c3)[nH]c2cc1C1=NCCN1 | 0.276 |
| c1cc2cc(-c3ccc(-c4cc5ccc(C6=NCCN6)cc5[nH]4)cc3)[nH]c2cc1C1=NCCN1 | 0.162 |

Test item C(=C\c1cc2ccc(C3=NCCN3)cc2[nH]1)/c1cc2ccc(C3=NCCN3)cc2[nH]1 ; Ames spores; reported MIC was 0.146

----------
Molecular target: anthrax lethal factor (Bacillus anthracis, UniProt P15917)
Sequence (P15917 34-809 limits assumed): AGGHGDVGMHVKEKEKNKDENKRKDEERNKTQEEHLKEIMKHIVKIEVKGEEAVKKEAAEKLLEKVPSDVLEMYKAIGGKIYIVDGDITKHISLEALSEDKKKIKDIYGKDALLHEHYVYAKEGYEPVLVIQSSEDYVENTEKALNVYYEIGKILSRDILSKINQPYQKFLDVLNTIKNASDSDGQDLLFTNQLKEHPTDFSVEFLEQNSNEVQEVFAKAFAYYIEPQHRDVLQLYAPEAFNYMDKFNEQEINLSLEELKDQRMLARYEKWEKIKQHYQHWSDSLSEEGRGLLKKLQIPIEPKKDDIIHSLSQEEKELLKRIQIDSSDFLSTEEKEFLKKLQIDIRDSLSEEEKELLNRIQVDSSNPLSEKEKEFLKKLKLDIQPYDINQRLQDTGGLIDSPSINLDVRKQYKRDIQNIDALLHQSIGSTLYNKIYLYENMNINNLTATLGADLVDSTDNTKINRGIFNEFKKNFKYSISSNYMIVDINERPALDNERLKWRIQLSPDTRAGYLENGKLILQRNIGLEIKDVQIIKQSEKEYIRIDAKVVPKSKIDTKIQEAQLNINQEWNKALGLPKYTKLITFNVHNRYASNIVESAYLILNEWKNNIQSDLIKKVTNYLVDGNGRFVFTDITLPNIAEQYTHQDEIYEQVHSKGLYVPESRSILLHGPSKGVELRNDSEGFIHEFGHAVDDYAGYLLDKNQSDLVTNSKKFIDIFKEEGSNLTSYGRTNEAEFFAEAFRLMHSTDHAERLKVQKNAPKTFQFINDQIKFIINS
Format: biochemical
Attribute Measured: inhibition of the protease activity of anthrax lethal factor

| Substance Smiles | Study Target | Value Measured |
| --- | --- | --- |
| N=C(N)c1ccc2oc(/C=C/C=C/C=C/c3cc4cc(C(=N)N)ccc4o3)cc2c1 | anthrax lethal factor (Bacillus anthracis, UniProt P15917) | inhibit |
| C(=C\c1cc2ccc(C3=NCCN3)cc2[nH]1)/c1ccc(C2=NCCN2)cc1 | anthrax lethal factor (Bacillus anthracis, UniProt P15917) | inhibit |
| NC(N)=NN=Cc1ccc2cc(-c3ccc(/C=N/N=C(N)N)cc3)sc2c1 | anthrax lethal factor (Bacillus anthracis, UniProt P15917) | inhibit |
| N=C(N)c1ccc2[nH]c(/C=C/c3cc4cc(C(=N)N)ccc4o3)cc2c1 | anthrax lethal factor (Bacillus anthracis, UniProt P15917) | inhibit |
| C(=C\c1cc2ccc(C3=NCCN3)cc2[nH]1)/c1ccc2cc(C3=NCCN3)[nH]c2c1 | anthrax lethal factor (Bacillus anthracis, UniProt P15917) | inhibit |

Each of the following entries comes with a recorded value; kindly state inhibition of the protease activity of anthrax lethal factor for each.
1. C(/C=C/c1cc2cc(C3=NCCN3)ccc2o1)=C\c1cc2cc(C3=NCCN3)ccc2o1
2. N=C(N)c1ccc(/C=C/C=C/c2cc3cc(C(=N)N)ccc3o2)cc1

inhibit
inhibit

----------
System: B. anthracis GFP sterne vegetative cells
Test: microbe, parasite or virus in culture
Format: cell-based
Details: Bacillus anthracis, read-out: MIC B. anthracis vegetative cells
What MIC was measured for each of the following?
Numbers only, in µg/mL.

Some compounds with recorded MIC:
| Compound | MIC, µg/mL |
| --- | --- |
| NC(N)=NN=Cc1ccc2cc(-c3ccc(/C=N/N=C(N)N)cc3)sc2c1 [NSC 341909] | 18 |
| C(/C=C/c1cc2cc(C3=NCCN3)ccc2o1)=C\c1ccc(C2=NCCN2)cc1 [NSC 308573] | 18.2 |
| N=C(N)c1ccc2oc(/C=C/c3cc4cc(C(=N)N)ccc4s3)cc2c1 [NSC 266472] | 17.3 |
| N=C(N)c1ccc2cc(/C=C/c3cc4ccc(C(=N)N)cc4o3)[nH]c2c1 [NSC 294200] | 4.16 |
| C(=C\c1cc2cc(C3=NCCN3)ccc2o1)/c1ccc(C2=NCCN2)cc1 [NSC 308570] | 17.2 |

Each of the following entries comes with a recorded value; kindly state MIC for each.
1. N=C(N)c1ccc2oc(/C=C/C=C/c3cc4cc(C(=N)N)ccc4o3)cc2c1 [NSC 300511]
2. N=C(N)c1ccc(Oc2ccc(-c3cc4ccc(C(=N)N)cc4[nH]3)cc2)cc1 [NSC 240898]

[17.7, 4.42]

----------
What MIC was measured for each of the following?
Test system: B. anthracis GFP sterne vegetative cells
Test: microbe, parasite or virus in culture
Format: cell-based
Conditions: Bacillus anthracis, read-out: MIC B. anthracis vegetative cells

Some compounds with recorded MIC:
| Compound | Study Target | Attribute Measured | Value Measured |
| --- | --- | --- | --- |
| Nc1ccc(C2=Cc3ccc(N)cc3S2(=O)=O)cc1 [NSC 266482] | B. anthracis GFP sterne vegetative cells | MIC | > 10.9 µg/mL |
| N=C(N)c1ccc(-c2nc3ccc(C(=N)N)cc3[nH]2)cc1 [NSC 240894] | B. anthracis GFP sterne vegetative cells | MIC | > 14 µg/mL |
| N=C(N)c1ccc(/C=C/c2cc3cc(C(=N)N)ccc3o2)cc1 [NSC 300512] | B. anthracis GFP sterne vegetative cells | MIC | > 15.1 µg/mL |
| Cc1c(/C=C/c2oc3ccc(C(=N)N)cc3c2C)oc2ccc(C(=N)N)cc12 [NSC 266474] | B. anthracis GFP sterne vegetative cells | MIC | > 17.8 µg/mL |

The compound identified as C/C(=C\c1cc2cc(C(=N)N)ccc2o1)c1cc2cc(C(=N)N)ccc2o1 [NSC 266476] registered its MIC at > 17.2 µg/mL

----------
What MIC was measured for each of the following?
Tested on: B. anthracis GFP sterne vegetative cells
Assay: microbe, parasite or virus in culture
Type: cell-based
Conditions: Bacillus anthracis, read-out: MIC B. anthracis vegetative cells

| Substance Smiles | MIC |
| --- | --- |
| N=C(N)c1ccc(-n2cc3cc(C(=N)N)ccc3n2)cc1 | > 14 µg/mL |
| N=C(N)c1ccc2c(c1)=NC(=C(N)N)C=2 | > 11 µg/mL |
| N=C(N)c1ccc2nc(/C=C/c3nc4ccc(C(=N)N)cc4[nH]3)[nH]c2c1 | > 16.7 µg/mL |
| N=C(N)c1ccc2[nH]c(/C=C/c3cc4ccc(C(=N)N)cc4o3)cc2c1 | > 16.6 µg/mL |

Each of the following entries comes with a recorded value; kindly state MIC for each.
1. NC(N)=Nc1ccc(-c2cc3cc(N=C(N)N)ccc3s2)cc1
2. N=C(N)c1ccc2[nH]c(/C=C/c3cc4cc(C(=N)N)ccc4o3)cc2c1
3. N=C(N)c1ccc(/C=C/C=C/c2cc3cc(C(=N)N)ccc3o2)cc1
4. N=C(N)c1ccc2oc(/C=C/c3cc4ccc(C(=N)N)cc4o3)cc2c1
5. C(=C\c1cc2cc(C3=NCCN3)ccc2o1)/c1cc2cc(C3=NCCN3)ccc2[nH]1
6. O=C(Nc1ccc(C2=NCCN2)cc1)c1cc2ccc(C3=NCCN3)cc2[nH]1
7. c1cc(-c2cc3cc(C4=NCCN4)ccc3s2)ccc1C1=NCCN1

> 15.9 µg/mL
> 16.6 µg/mL
16.1 µg/mL
> 16.7 µg/mL
> 18.5 µg/mL
17.8 µg/mL
> 16.8 µg/mL

Each of the following entries comes with a recorded value; kindly state MIC for each.
1. N=C(N)c1ccc(-c2ccc(-c3ccc(C(=N)N)cc3)s2)cc1
2. c1cc(-c2[nH]c3cc(C4=NCCN4)ccc3c2-c2cc3ccc(C4=NCCN4)cc3[nH]2)ccc1C1=NCCN1
3. C(=C\c1cc2ccc(C3=NCCN3)cc2[nH]1)/c1ccc(Oc2ccc(C3=NCCN3)cc2)cc1
4. c1cc2cc(-c3ccc(-c4cc5ccc(C6=NCCN6)cc5[nH]4)cc3)[nH]c2cc1C1=NCCN1

> 15.7 µg/mL
24.9 µg/mL
2.6 µg/mL
0.646 µg/mL

----------
Target: anthrax lethal factor (Bacillus anthracis, UniProt P15917)
Format: biochemical
Attribute Measured: inhibition of the protease activity of anthrax lethal factor

Some compounds with recorded inhibition of the protease activity of anthrax lethal factor:
| Compound | Value Measured |
| --- | --- |
| N=C(N)c1ccc(Oc2ccc(-c3cc4ccc(C(=N)N)cc4[nH]3)cc2)cc1 [NSC 240898] | inhibit |
| N=C(N)c1ccc2oc(CCc3cc4ccc(C(=N)N)cc4[nH]3)cc2c1 [NSC 290109] | inhibit |
| O=C(Nc1ccc(C2=NCCN2)cc1)c1cc2ccc(C3=NCCN3)cc2[nH]1 [NSC 294206] | inhibit |
| C(=C\c1cc2ccc(C3=NCCN3)cc2o1)/c1cc2cc(C3=NCCN3)ccc2[nH]1 [NSC 294204] | inhibit |
| N=C(N)c1ccc(/C=C/c2cc3cc(C(=N)N)ccc3[nH]2)cc1 [NSC 317884] | inhibit |
| c1cc(-c2[nH]c3cc(C4=NCCN4)ccc3c2-c2cc3ccc(C4=NCCN4)cc3[nH]2)ccc1C1=NCCN1 [NSC 341911] | inhibit |
| C/C(=C\c1cc2cc(C(=N)N)ccc2o1)c1cc2cc(C(=N)N)ccc2o1 [NSC 266476] | inhibit |
| N=C(N)c1ccc2cc(/C=C/c3cc4ccc(C(=N)N)cc4o3)[nH]c2c1 [NSC 294200] | inhibit |

Each of the following entries comes with a recorded value; kindly state inhibition of the protease activity of anthrax lethal factor for each.
1. C(=C\c1cc2ccc(C3=NCCN3)cc2o1)/c1cc2ccc(C3=NCCN3)cc2[nH]1 [NSC 294201]
2. N=C(N)c1ccc2[nH]c(/C=C/c3cc4ccc(C(=N)N)cc4o3)cc2c1 [NSC 294203]

1. inhibit
2. inhibit
